Listing of entries alongside the reported Acid residual percentage.
protocolText: Evaluation of reactivity with acid (stirring with 2-ethylhexanoic acid in 1,3,5-trimethylbenzene at 150° C.)
Assay type: physicochemical
assaySetup: stirring time 6 hrs at 150° C.; calculated from acid values, 0 hr = 100%
Use % as the unit, but write only the number.

Consider the reported Acid residual percentage for these molecules:
>  <molecule>
CC1(C2CCC3(C)OC3C2)CO1 (stereo not drawn) [CELLOXIDE 3000]

>  <Acid residual percentage / %>
52

$$$$
>  <molecule>
CC(CC(=O)OCC1CCC2OC2C1)CC(C)(C)C (stereo not drawn)

>  <Acid residual percentage / %>
27

$$$$
>  <molecule>
C=C(C)C1CCC2(C)OC2C1 [D-Limonene oxide, D-limonene oxide]

>  <Acid residual percentage / %>
50

$$$$
>  <molecule>
O=C(OCC1CCC2OC2C1)C1CCC2OC2C1 (stereo not drawn) [CELLOXIDE 2021P]

>  <Acid residual percentage / %>
30

$$$$
>  <molecule>
C=CC1CCC2OC2C1 (stereo not drawn) [CELLOXIDE 2000, 4-vinylcyclohexene oxide]

>  <Acid residual percentage / %>
36

$$$$

Below: the item to evaluate.
Specify Acid residual percentage for CCCCC(CC)COC(=O)C1CC2OC2CC1C(=O)OCC(CC)CCCC (stereo not drawn) [SANSO CIZER E-PS, di-2-ethylhexyl epoxyhexahydrophthalate] and stop.
73

====

Listing of entries alongside the reported Oxirane oxygen content.
protocolText: Evaluation of reactivity with acid (stirring with 2-ethylhexanoic acid in 1,3,5-trimethylbenzene at 150° C.)
Type: physicochemical
assaySetup: stirring time 0 hr (before heating); HBr titrimetry
Use % as the unit, but write only the number.

>  <compound>
CC1(C2CCC3(C)OC3C2)CO1 (stereo not drawn) [CELLOXIDE 3000]

>  <measuredParameter>
Oxirane oxygen content

>  <recordedNumber>
1.81

$$$$
>  <compound>
C=CC1CCC2OC2C1 (stereo not drawn) [CELLOXIDE 2000, 4-vinylcyclohexene oxide]

>  <measuredParameter>
Oxirane oxygen content

>  <recordedNumber>
1.92

$$$$
>  <compound>
CC(CC(=O)OCC1CCC2OC2C1)CC(C)(C)C (stereo not drawn) [Product of Example 1]

>  <measuredParameter>
Oxirane oxygen content

>  <recordedNumber>
1.82

$$$$
>  <compound>
C=C(C)C1CCC2(C)OC2C1 [D-Limonene oxide, D-limonene oxide]

>  <measuredParameter>
Oxirane oxygen content

>  <recordedNumber>
1.92

$$$$
>  <compound>
CCCCC(CC)COC(=O)C1CC2OC2CC1C(=O)OCC(CC)CCCC (stereo not drawn) [SANSO CIZER E-PS, di-2-ethylhexyl epoxyhexahydrophthalate]

>  <measuredParameter>
Oxirane oxygen content

>  <recordedNumber>
1.84

$$$$

Below: the item to evaluate.
Specify Oxirane oxygen content for O=C(OCC1CCC2OC2C1)C1CCC2OC2C1 (stereo not drawn) [CELLOXIDE 2021P] and stop.
2.00

====

Listing of entries alongside the reported Oxirane oxygen content.
protocolText: Evaluation of reactivity with acid (stirring with 2-ethylhexanoic acid in 1,3,5-trimethylbenzene at 150° C.)
Format: physicochemical
assaySetup: stirring time 6 hrs at 150° C.; HBr titrimetry
Use % as the unit, but write only the number.

>  <molecule>
CC(CC(=O)OCC1CCC2OC2C1)CC(C)(C)C (stereo not drawn) [Product of Example 1]

>  <measuredParameter>
Oxirane oxygen content

>  <recordedNumber>
0.89

$$$$
>  <molecule>
CC1(C2CCC3(C)OC3C2)CO1 (stereo not drawn) [CELLOXIDE 3000]

>  <measuredParameter>
Oxirane oxygen content

>  <recordedNumber>
0.61

$$$$
>  <molecule>
CCCCC(CC)COC(=O)C1CC2OC2CC1C(=O)OCC(CC)CCCC (stereo not drawn) [SANSO CIZER E-PS, di-2-ethylhexyl epoxyhexahydrophthalate]

>  <measuredParameter>
Oxirane oxygen content

>  <recordedNumber>
1.53

$$$$
>  <molecule>
C=C(C)C1CCC2(C)OC2C1 [D-Limonene oxide, D-limonene oxide]

>  <measuredParameter>
Oxirane oxygen content

>  <recordedNumber>
1.25

$$$$
>  <molecule>
O=C(OCC1CCC2OC2C1)C1CCC2OC2C1 (stereo not drawn) [CELLOXIDE 2021P]

>  <measuredParameter>
Oxirane oxygen content

>  <recordedNumber>
1.11

$$$$

Specify Oxirane oxygen content for C=CC1CCC2OC2C1 (stereo not drawn) [CELLOXIDE 2000, 4-vinylcyclohexene oxide] and stop.
1.15
